- System: WHIM2 (cells of a triple-negative basal-like breast cancer xenograft)
- Assay: cell viability of combination (% of vehicle); higher = less cytotoxic
- Conditions Used: 1 µM; 72 h; partner dose: 10 nM
Threshold 50: cell viability of combination strictly smaller gives label 1, otherwise label 0.

// known answers, use as guide
Given the entry Cc1cccc(CN2CCN(C(c3ccccc3)c3ccc(Cl)cc3)CC2)c1.Cl.Cl (centres undefined) [Meclizine 2HCl] + CN(C)C/C=C/C(=O)Nc1cc2c(Nc3ccc(F)c(Cl)c3)ncnc2cc1O[C@H]1CCOC1 [Afatinib] , would its reported cell viability of combination be below 50?
label 0

Given the entry CN(C)CCOc1ccc(C(=C(CCCl)c2ccccc2)c2ccccc2)cc1.O=C(O)CC(O)(CC(=O)O)C(=O)O [Toremifene Citrate] + CN(C)C/C=C/C(=O)Nc1cc2c(Nc3ccc(F)c(Cl)c3)ncnc2cc1O[C@H]1CCOC1 [Afatinib] , would its reported cell viability of combination be below 50?
label 0

Given the entry CCOC(=O)C1=C(COCCN)NC(C)=C(C(=O)OC)C1c1ccccc1Cl.O=S(=O)(O)c1ccccc1 (centres undefined) [Amlodipine Besylate] + CN(C)C/C=C/C(=O)Nc1cc2c(Nc3ccc(F)c(Cl)c3)ncnc2cc1O[C@H]1CCOC1 [Afatinib] , would its reported cell viability of combination be below 50?
label 0

Given the entry COc1cccc2c1C(=O)c1c(O)c3c(c(O)c1C2=O)CC(O)(C(=O)CO)CC3OC1CC(N)C(O)C(C)O1 (centres undefined) [Doxorubicin] + CN(C)C/C=C/C(=O)Nc1cc2c(Nc3ccc(F)c(Cl)c3)ncnc2cc1O[C@H]1CCOC1 [Afatinib] , would its reported cell viability of combination be below 50?
label 1

Given the entry CC1=C(C(=O)OC(C)C)C(c2cccc([N+](=O)[O-])c2)C(C(=O)OC2CN(C(c3ccccc3)c3ccccc3)C2)=C(N)N1 (centres undefined) [Azelnidipine] + CN(C)C/C=C/C(=O)Nc1cc2c(Nc3ccc(F)c(Cl)c3)ncnc2cc1O[C@H]1CCOC1 [Afatinib] , would its reported cell viability of combination be below 50?
label 1

Further cases:
Given the entry CCCCc1oc2ccc(NS(C)(=O)=O)cc2c1C(=O)c1ccc(OCCCN(CCCC)CCCC)cc1 [Dronedarone] + CN(C)C/C=C/C(=O)Nc1cc2c(Nc3ccc(F)c(Cl)c3)ncnc2cc1O[C@H]1CCOC1 [Afatinib] , would its reported cell viability of combination be below 50?
label 1

Given the entry CS(=O)(=O)O.Cc1c(O)cccc1C(=O)NC(CSc1ccccc1)C(O)CN1CC2CCCCC2CC1C(=O)NC(C)(C)C (centres undefined) [Nelfinavir Mesylate] + CN(C)C/C=C/C(=O)Nc1cc2c(Nc3ccc(F)c(Cl)c3)ncnc2cc1O[C@H]1CCOC1 [Afatinib] , would its reported cell viability of combination be below 50?
label 0

Given the entry O=C(O)c1cc(O)c(O)c(O)c1 [Gallic acid] + CN(C)C/C=C/C(=O)Nc1cc2c(Nc3ccc(F)c(Cl)c3)ncnc2cc1O[C@H]1CCOC1 [Afatinib] , would its reported cell viability of combination be below 50?
label 1

Given the entry Cc1c(C(=O)NN2CCCCC2)nn(-c2ccc(Cl)cc2Cl)c1-c1ccc(Cl)cc1 [Rimonabant] + CN(C)C/C=C/C(=O)Nc1cc2c(Nc3ccc(F)c(Cl)c3)ncnc2cc1O[C@H]1CCOC1 [Afatinib] , would its reported cell viability of combination be below 50?
label 1

###

Quick reference for cell viability among some molecules
- Test system: HCI03 (cells of an ER-positive luminal breast cancer xenograft)
- Assay: cell viability (% of vehicle); higher = less cytotoxic
- Conditions Used: 10 µM; 72 h
Structures can show the parent of a compound that is named as a salt.
Please reply with the number alone, leaving off any unit.

Give its cell viability value. Item: C=C[C@]1(C)C[C@@H](OC(=O)CSC(C)(C)CNC(=O)[C@H](N)C(C)C)[C@]2(C)[C@H](C)CC[C@]3(CCC(=O)[C@H]32)[C@@H](C)[C@@H]1O [Valnemulin HCl]
107

Give its cell viability value. Item: CC1OC(OC2C(CO)OC(OC3C(CO)OC(O)C(O)C3O)C(O)C2O)C(O)C(O)C1NC1C=C(CO)C(O)C(O)C1O (centres undefined)
109

Further cases:
Give its cell viability value. Item: O=C1CCCC(=O)C1C(=O)c1ccc(C(F)(F)F)cc1[N+](=O)[O-]
110

Give its cell viability value. Item: C=C1CCC(O)CC1=CC=C1CCCC2(C)C1CCC2C(C)C=CC(C)C(C)C (centres undefined) [Vitamin D2 (Ergocalciferol)]
101

###

- Test system: HCI16 (cells of a triple-negative basal-like breast cancer xenograft)
- Assay: cell viability (% of vehicle); higher = less cytotoxic
- Conditions Used: 10 µM; 72 h
Measurement Kind: cell viability
Please reply with the number alone, leaving off any unit.

Study these solved cases before continuing.
Give its cell viability value. Item: O=C([O-])Cc1ccccc1Nc1c(Cl)cccc1Cl.[Na+] [Diclofenac Sodium]
111

Give its cell viability value. Item: Cl.O=C(Nc1ccccc1)OCC(CN1CCCCC1)OC(=O)Nc1ccccc1 (stereo not drawn) [Diperodon HCl]
138

Give its cell viability value. Item: OCC1OC(Oc2ccc(O)cc2)C(O)C(O)C1O (stereo not drawn) [Arbutin]
131

Further cases:
Give its cell viability value. Item: CCn1cc(C(=O)O)c(=O)c2ccc(C)nc21 [Nalidixic acid]
103

###

- System: HCI13 (cells of an ER-positive luminal breast cancer xenograft)
- Assay: cell viability (% of vehicle); higher = less cytotoxic
- Conditions Used: 10 µM; 72 h
Grouping by measured cell viability is done with the following cut points: label 0 = under 80, label 1 = from 80 up to 100, label 2 = 100 and over

// known answers, use as guide
Quick check: band for Nc1ccc(S(=O)(=O)c2ccc(N)cc2)cc1
label 2

Quick check: band for Cc1c(O)c(=O)ccn1C
label 1

Further cases:
Quick check: band for CN(C(=O)CN(CCO)CC(=O)N(C)C(C)(C)Cc1ccccc1)C(C)(C)Cc1ccccc1
label 0

Quick check: band for COc1cc2c(Nc3ccc(Br)cc3F)ncnc2cc1OCC1CCN(C)CC1 [Vandetanib (ZD6474)]
label 0

Quick check: band for COC(=O)C1CC2=CC(=O)CCC2(C)C23OC2CC2(C)C(CC[C@]24CCC(=O)O4)C13 (stereo not given in full)
label 1

Quick check: band for CC(C)NCC(O)c1ccc(O)c(O)c1.Cl (stereo not given) [Isoprenaline HCl]
label 0

Quick check: band for O=C([O-])Cc1ccccc1Nc1c(Cl)cccc1Cl.[Na+] [Diclofenac Sodium]
label 2

Quick check: band for Cc1cc(C#N)cc(C)c1Oc1nc(Nc2ccc(C#N)cc2)nc(N)c1Br
label 1

Quick check: band for CC(=O)OC1CC2CCC3C(CCC4(C)C3CC([N+]3(C)CCCCC3)C4OC(C)=O)C2(C)CC1N1CCCCC1.[Br-] (stereo not given) [Vecuronium Bromide]
label 2

Quick check: band for CCN1CCN(C(=O)NC(C(=O)NC2C(=O)N3C2SC(C)(C)C3C(=O)[O-])c2ccccc2)C(=O)C1=O.[Na+] (stereo not given) [Piperacillin Sodium]
label 1

Quick check: band for CNC(=O)c1cc(Oc2ccc(NC(=O)Nc3ccc(Cl)c(C(F)(F)F)c3)c(F)c2)ccn1.Cl [Regorafenib hydrochloride]
label 0

Quick check: band for Br.Cc1ccc(Sc2ccccc2N2CCNCC2)c(C)c1
label 0

###

- System: UCD52 (cells of a triple-negative basal-like breast cancer xenograft)
- Assay: cell viability of combination (% of vehicle); higher = less cytotoxic
- Conditions Used: 1 µM; 72 h; partner dose: 10 nM
Measurement Kind: cell viability of combination
Please reply with the number alone, leaving off any unit.

Give its cell viability of combination value. Item: Cc1cc(-n2c(=O)[nH]c(=O)n(C)c2=O)ccc1Oc1ccc(SC(F)(F)F)cc1 [Toltrazuril] + CN(C)C/C=C/C(=O)Nc1cc2c(Nc3ccc(F)c(Cl)c3)ncnc2cc1O[C@H]1CCOC1
76.1

Give its cell viability of combination value. Item: CC(C)(C)Cn1c(N)nc2ccc(-c3[nH]c(C(C)(C)C)nc3-c3ccc(F)cc3)nc21.CS(=O)(=O)O.CS(=O)(=O)O + CN(C)C/C=C/C(=O)Nc1cc2c(Nc3ccc(F)c(Cl)c3)ncnc2cc1O[C@H]1CCOC1
30.3

###

- System: WHIM30 (cells of a triple-negative basal-like breast cancer xenograft)
- Assay: cell viability (% of vehicle); higher = less cytotoxic
- Conditions Used: 10 µM; 72 h
Measurement Kind: cell viability
Please reply with the number alone, leaving off any unit.

Study these solved cases before continuing.
Give its cell viability value. Item: CN1CCN(C2=c3ccccc3=Nc3ccc(Cl)cc3N2)CC1 [Clozapine]
122

Give its cell viability value. Item: O=C1c2ccccc2C(=O)C1c1ccccc1 [Phenindione]
159

Give its cell viability value. Item: CCN(CC)C(=O)C(C#N)=Cc1cc(O)c(O)c([N+](=O)[O-])c1 [Entacapone]
104

Further cases:
Give its cell viability value. Item: CS(=O)(=O)O.Cc1c(O)cccc1C(=O)NC(CSc1ccccc1)C(O)CN1CC2CCCCC2CC1C(=O)NC(C)(C)C (stereo not given) [Nelfinavir Mesylate]
71.9

Give its cell viability value. Item: S=P(N1CC1)(N1CC1)N1CC1
119

###

Quick reference for cell viability among some molecules
- System: WHIM30
- Assay: cell viability (% of vehicle); higher = less cytotoxic
- Conditions Used: 10 µM; 72 h
Where a name gives a salt, the structure may show the parent alone.
Please reply with the number alone, leaving off any unit.

Give its cell viability value. Item: Cc1ccsc1C(=CCCN1CCC[C@@H](C(=O)O)C1)c1sccc1C [Tiagabine hydrochloride]
105

Give its cell viability value. Item: COc1cc2c(Nc3ccc(Br)cc3F)ncnc2cc1OCC1CCN(C)CC1 [Vandetanib (ZD6474)]
25.7

Further cases:
Give its cell viability value. Item: CCC1=CC2CN(C1)Cc1c([nH]c3ccccc13)C(C(=O)OC)(c1cc3c(cc1OC)N(C)C1C(O)(C(=O)OC)C(OC(C)=O)C4(CC)C=CCN5CCC31C54)C2 (stereo not drawn)
96.7
